Property: Population Tubulin-Different-Phenotype (%); scope: individual molecules
Tested on: HEK-293T
assay-remarks: Multiplex assay against HEK293T
Format: toxicity, cell-based
test-conditions: human, 24 h, 1 µM, compound concentration 1 uM, replicate 2
Please respond with the number in % and leave the unit unwritten.

CN1C[C@H](C(=O)N[C@]2(C)O[C@@]3(O)[C@@H]4CCCN4C(=O)[C@H](Cc4ccccc4)N3C2=O)C[C@@H]2c3cccc4[nH]cc(c34)C[C@H]21.CS(=O)(=O)O [DIHYDROERGOTAMINE MESYLATE] :: 12
C[C@@H]1CC(=O)Nc2cccc(-c3ccc4c(c3)c(-c3cnn(C)c3)nn4C)c2N1 :: 16
COc1cc(C(=O)N2CC[C@@H](O)[C@@H](N)C2)cc2nc(-c3cc4ccccc4n3CC3CC3)n(C)c12.Cl :: 30

Report Population Tubulin-Different-Phenotype (%) on HEK-293T for this entry: Nc1nc(CC(=O)Nc2ccc(CCNC[C@H](O)c3ccccc3)cc2)cs1 [MIRABEGRON]
13

Report Population Tubulin-Different-Phenotype (%) on HEK-293T for this entry: `Cn1cc(C(=O)OCC2CCN(CCNS(C)(=O)=O)CC2)c2ccccc21`
17

Report Population Tubulin-Different-Phenotype (%) on HEK-293T for this entry: `Nc1nc(-c2ccco2)c2cnn(Cc3ccccc3F)c2n1`
17

Report Population Tubulin-Different-Phenotype (%) on HEK-293T for this entry: `Cc1sc2c(c1C)C(c1ccc(Cl)cc1)=N[C@H](CC(=O)OC(C)(C)C)c1nnc(C)n1-2`
11

Report Population Tubulin-Different-Phenotype (%) on HEK-293T for this entry: CCC(=O)OCC(=O)[C@@]1(OC(=O)CC)[C@@H](C)C[C@H]2[C@@H]3CCC4=CC(=O)C=C[C@]4(C)[C@@]3(Cl)[C@@H](O)C[C@@]21C [BECLOMETHASONE DIPROPIONATE]
18

Report Population Tubulin-Different-Phenotype (%) on HEK-293T for this entry: COCCCN1CCC(NC(=O)c2cc(Cl)c(N)c3c2OCC3)CC1 [PRUCALOPRIDE]
10

Report Population Tubulin-Different-Phenotype (%) on HEK-293T for this entry: CN(C)C/C=C/C(=O)Nc1ccc(C(=O)N2CCCC(Nc3ncc(Cl)c(-c4c[nH]c5ccccc45)n3)C2)cc1 (stereo unspecified)
70

Report Population Tubulin-Different-Phenotype (%) on HEK-293T for this entry: `CN1CCN(c2ccc(Nc3c4ccccc4nc4ccccc34)cc2)CC1.Cl.Cl.O`
12

Report Population Tubulin-Different-Phenotype (%) on HEK-293T for this entry: CCCCC[C@H](O)/C=C/[C@H]1[C@H](O)CC(=O)[C@@H]1CCCCCCC(=O)O [ALPROSTADIL]
14

Report Population Tubulin-Different-Phenotype (%) on HEK-293T for this entry: Cl.Cl.OCCOCCN1CCN(C(c2ccccc2)c2ccc(Cl)cc2)CC1 (stereo unspecified) [HYDROXYZINE HYDROCHLORIDE]
17

Report Population Tubulin-Different-Phenotype (%) on HEK-293T for this entry: O=c1ccc2ccc(OCCCCN3CCN(c4cccc5sccc45)CC3)cc2[nH]1 [BREXPIPRAZOLE]
35

Report Population Tubulin-Different-Phenotype (%) on HEK-293T for this entry: CC(C)(C)c1ccc(CSc2cnn(C(C)(C)C)c(=O)c2Cl)cc1 [PYRIDABEN]
22

Report Population Tubulin-Different-Phenotype (%) on HEK-293T for this entry: `CN(C)C(=O)Cn1cc(-c2ccc(-c3nnc4ccccn34)cc2)cn1`
18
